Tested on: IL-2 proximal promoter driven-luciferase
test: IL-2 luciferase reporter assay in Jurkat T-cells (PMA/ionomycin)
Type: cell-based, human
study.conditions: Homo sapiens, Jurkat, Kv1.3 overexpression low to high, 3rd curve, n=6; read-out: IC50, IL-2 luciferase reporter, Kv1.3 overexpression
endpoint: pIC50
Please express pIC50 as -log10 of the molar concentration.

Task item: I'd like to know its pIC50. The molecule in question is CC(C)/N=c1\cc2n(-c3ccc(Cl)cc3)c3ccccc3nc-2cc1Nc1ccc(Cl)cc1
Reply: 6.41

---

target.system: Kv1.3 (Homo sapiens, UniProt P22001)
Construct: endogenous in cells
Sequence (P22001 whole entry): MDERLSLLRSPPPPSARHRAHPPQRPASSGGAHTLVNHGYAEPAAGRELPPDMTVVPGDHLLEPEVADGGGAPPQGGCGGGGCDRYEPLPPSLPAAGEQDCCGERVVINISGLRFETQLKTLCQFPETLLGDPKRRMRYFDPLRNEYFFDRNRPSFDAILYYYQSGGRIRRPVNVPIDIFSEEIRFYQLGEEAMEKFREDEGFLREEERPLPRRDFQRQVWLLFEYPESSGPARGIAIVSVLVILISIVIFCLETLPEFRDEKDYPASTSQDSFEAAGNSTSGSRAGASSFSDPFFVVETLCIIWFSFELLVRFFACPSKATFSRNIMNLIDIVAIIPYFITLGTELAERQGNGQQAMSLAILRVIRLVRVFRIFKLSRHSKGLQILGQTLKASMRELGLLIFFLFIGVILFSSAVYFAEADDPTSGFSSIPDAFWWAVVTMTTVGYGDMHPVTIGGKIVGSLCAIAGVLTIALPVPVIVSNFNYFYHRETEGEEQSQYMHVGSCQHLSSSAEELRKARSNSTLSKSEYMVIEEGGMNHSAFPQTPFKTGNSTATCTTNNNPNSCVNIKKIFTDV
test: Patch-clamp of Kv1.3 currents in Jurkat T-cells
study.conditions: current at +80 mV, inhibition at 120 s, read-out: IC50, Kv1.3 potassium current
endpoint: pIC50
Please note pIC50 is a logarithmic value: minus log10 of concentration in mol/L. Answer with that number alone.

Task item: pIC50 lookup needed for CC(C)/N=c1\cc2n(-c3ccc(Cl)cc3)c3ccccc3nc-2cc1Nc1ccc(Cl)cc1 , thanks.
Reply: 6.52
